Tested on: Caenorhabditis elegans N2
assay comment: food intake (mean delta OD600 / animal over 72 h) with 50 uM loxapine co-treatment (OD600 units per animal); higher = more food eaten (less suppression of loxapine-induced hyperphagia)
experimental setup: first compound 33 µM, loxapine concentration 50 µM
Counter-ions that a name gives are not always drawn.
We use 0.02 as the dividing line for food intake: on or above the line is met, below is not met.

{"compound": "Cc1cc(C2CCCCC2)n(O)c(=O)c1 [ciclopirox] + CN1CCN(C2=Nc3ccccc3Oc3ccc(Cl)cc32)CC1", "category": "met"}
{"compound": "CCOC(=O)[C@H](CCc1ccccc1)N[C@@H](C)C(=O)N1Cc2ccccc2C[C@H]1C(=O)O [quinapril (hydrochloride)] + CN1CCN(C2=Nc3ccccc3Oc3ccc(Cl)cc32)CC1", "category": "met"}
{"compound": "CC(C)NCC(O)COc1ccc(CCOCC2CC2)cc1 (stereo not given) [betaxolol (hydrochloride)] + CN1CCN(C2=Nc3ccccc3Oc3ccc(Cl)cc32)CC1 [loxapine]", "category": "met"}
{"compound": "CC(CN1c2ccccc2Sc2ccccc21)N(C)C (stereo not given) [promethazine (hydrochloride)] + CN1CCN(C2=Nc3ccccc3Oc3ccc(Cl)cc32)CC1", "category": "met"}
{"compound": "Nc1nc(/C(=C/CC(=O)O)C(=O)N[C@@H]2C(=O)N3C(C(=O)O)=CCS[C@H]23)cs1 [ceftibuten (dihydrate)] + CN1CCN(C2=Nc3ccccc3Oc3ccc(Cl)cc32)CC1", "category": "not met"}
